Parameter: cAMP accumulation (HTRF): -log10EC50. Scope: all listed entries.
STUDY_TARGET: T1, PTHR1 on CHO-K1/Ga15/PTHR1 cells (UniProt Q03431 27-593, limits assumed)
T1 sequence (looked up): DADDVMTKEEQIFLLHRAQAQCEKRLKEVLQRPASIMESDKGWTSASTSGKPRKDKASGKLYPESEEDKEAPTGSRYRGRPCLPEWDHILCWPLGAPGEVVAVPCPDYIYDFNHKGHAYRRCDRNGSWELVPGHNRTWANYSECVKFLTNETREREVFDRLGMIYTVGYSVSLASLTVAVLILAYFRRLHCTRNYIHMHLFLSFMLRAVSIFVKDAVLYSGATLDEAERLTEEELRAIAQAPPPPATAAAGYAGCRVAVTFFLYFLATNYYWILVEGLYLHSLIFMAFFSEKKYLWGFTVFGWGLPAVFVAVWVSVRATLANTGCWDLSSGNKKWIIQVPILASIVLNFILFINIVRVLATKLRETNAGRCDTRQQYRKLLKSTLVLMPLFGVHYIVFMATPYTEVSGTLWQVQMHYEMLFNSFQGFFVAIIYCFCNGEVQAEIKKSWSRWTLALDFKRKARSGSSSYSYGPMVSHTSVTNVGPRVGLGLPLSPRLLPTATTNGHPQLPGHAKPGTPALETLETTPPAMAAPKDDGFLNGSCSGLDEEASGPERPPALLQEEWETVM
EXPERIMENTAL_PROTOCOL: cell-based or functional assay
REPORTED_METRIC: cAMP accumulation (HTRF): -log10EC50

> print(dat)
                                      binder                measured.value
 1  GIAVFTIMHLRIYLRAEYELREMLLRLLEEIF [R2-17]  -3.35 -log10EC50 (as headed)
 2  AVAEIQLMHQRAKWGLEIELLKLLLSLLKEYI [R2-45]  -11.1 -log10EC50 (as headed)
 3  GIAVITLMLLRAYLELLEELVKILHELLRRYH [R2-52]  -5.59 -log10EC50 (as headed)
 4  AVAEIQLMHQRAKWEIQEIGIKITLDLLQTLK [R2-41]  -10.3 -log10EC50 (as headed)
 5   GVVMLQFMHDVAKIRAEYELREMLLRLLEEIF [R2-9]    110 -log10EC50 (as headed)
 6  AVAEIQLMHQRAKWKLELELKEKIRKLLEDLL [R2-29]  -7.22 -log10EC50 (as headed)
 7  LILVKKIIDLRAYLRAEYELREMLLRLLEEIF [R2-21]  -4.67 -log10EC50 (as headed)
 8  AVAEIQLMHQRAKWELEYELFEMFLKLLEEIF [I1 (R1-100)]  -7.28 -log10EC50 (as headed)
 9  AVAEIQLMHQRAKWGLELELKEKLRKILEDVY [R2-26]  -7.07 -log10EC50 (as headed)
10  GVAELQLMHDLAKIKLELELKVKLLEILKDVY [R2-49]  -5.79 -log10EC50 (as headed)

Where these numbers come from: patent US20220298217A1
